- assay: Toxicity in Zebrafish assessed as mortality at 12.5 ug/ml relative to control
- Parameters: species or system Danio rerio
- details: in vivo, at 12.5 µg/mL
measuredMetric: mortality at 12.5 ug/ml (%)
Hi! Could you send only the number? It should be in %, unit omitted.

Query :: I have this compound here, CCN(C)C(=O)Oc1ccc(/C=C/C(=O)N2CCc3ccccc3C2)cc1OC , and I need its recorded mortality at 12.5 ug/ml.
Result :: 100

* * *

// Acetylcholinesterase (Homo sapiens) IC50 records

Example cases with answers are listed next.
1) CCN(C)C(=O)Oc1ccc(/C=C/C(=O)N(CC)Cc2ccccc2)cc1OC ... 20.7 µM
2) COc1cc(/C=C/C(=O)O)ccc1O [FERULATE] ... > 100 µM

Now consider a different molecule.
Query :: I have this molecule here, COc1cc(/C=C/C(=O)N2CCc3ccccc3C2)ccc1OC(=O)N(C)C , and I need its recorded IC50.
Result :: 17.9 µM

* * *

- testedTarget: Cholinesterase (Homo sapiens, UniProt P06276)
- Sequence (P06276 whole entry): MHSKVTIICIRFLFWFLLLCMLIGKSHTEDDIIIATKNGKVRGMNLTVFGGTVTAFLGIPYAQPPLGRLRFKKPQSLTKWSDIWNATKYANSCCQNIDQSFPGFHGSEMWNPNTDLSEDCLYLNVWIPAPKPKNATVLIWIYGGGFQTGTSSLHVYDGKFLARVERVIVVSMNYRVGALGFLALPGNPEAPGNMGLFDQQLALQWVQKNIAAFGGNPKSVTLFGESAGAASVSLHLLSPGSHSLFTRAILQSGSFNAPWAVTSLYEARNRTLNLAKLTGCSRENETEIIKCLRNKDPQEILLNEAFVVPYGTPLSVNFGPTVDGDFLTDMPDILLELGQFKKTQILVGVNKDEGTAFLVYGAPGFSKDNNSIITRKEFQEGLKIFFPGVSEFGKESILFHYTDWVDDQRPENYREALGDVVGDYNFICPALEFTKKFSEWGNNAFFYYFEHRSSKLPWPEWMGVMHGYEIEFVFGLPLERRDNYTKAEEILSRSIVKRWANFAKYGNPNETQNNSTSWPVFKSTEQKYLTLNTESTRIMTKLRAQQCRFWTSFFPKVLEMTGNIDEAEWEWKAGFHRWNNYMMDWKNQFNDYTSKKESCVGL
- assay: Inhibition of human serum BuChE using acetylcholine iodide as substrate incubated for 15 mins by Ellman's method
pIC50: −log10 of the molar value.
pIC50 vs 5: at or above is T, below is F.

Look over these answered cases.
1. COc1cc(/C=C/C(=O)N2CCC(Cc3ccccc3)CC2)ccc1OC(=O)N(c1ccccc1)c1ccccc1 ... F
2. COc1cc(/C=C/C(=O)N2CCCCC2)ccc1OC(=O)N(c1ccccc1)c1ccccc1 ... F
3. COc1cc(/C=C/C(=O)N2CCN(Cc3ccccc3)CC2)ccc1OC(=O)N(c1ccccc1)c1ccccc1 ... F
4. COc1cc(/C=C/C(=O)N2CCN(Cc3ccccc3)CC2)ccc1OC(=O)N(C)C ... F

Consider the additional compound presented here.
Query :: Check the entry CCN(C)C(=O)Oc1ccc(/C=C/C(=O)N2CCc3ccccc3C2)cc1 : does pIC50 equal or exceed 5?
Result :: T

* * *

- assay: Toxicity in Zebrafish assessed as mortality at 50 ug/ml relative to control
- Set-up: species or system Danio rerio
- details: in vivo, at 50 µg/mL
measuredMetric: mortality at 50 ug/ml (%)
Hi! Could you send only the number? It should be in %, unit omitted.

Query :: I have this compound here, CCN(C)C(=O)Oc1ccc(/C=C/C(=O)N2CCc3ccccc3C2)cc1OC , and I need its recorded mortality at 50 ug/ml.
Result :: 100

* * *

- assay: Toxicity in AlCl3-induced Zebrafish model of Alzheimer's disease assessed as mortality at 200 ug/ml relative to control
- Set-up: species or system Danio rerio
- details: in vivo, at 200 µg/mL
measuredMetric: mortality at 200 ug/ml (%)
Hi! Could you send only the number? It should be in %, unit omitted.

Query :: I have this compound here, CCN(C)C(=O)Oc1ccc(/C=C/C(=O)N2CCc3ccccc3C2)cc1OC , and I need its recorded mortality at 200 ug/ml.
Result :: 100

* * *

- testedTarget: Cholinesterase (Homo sapiens)
- assay: Inhibition of human serum BuChE using acetylcholine iodide as substrate incubated for 15 mins by Ellman's method
measuredMetric: IC50 (µM)
Hi! Could you send only the number? It should be in µM, unit omitted.

Example cases with answers are listed next.
1. CCN(CC)C(=O)/C=C/c1ccc(OC(=O)N(C)C)c(OC)c1 ... 15.2
2. CCN(C)C(=O)Oc1ccc(/C=C/C(=O)N2CCc3ccccc3C2)cc1OC ... 0.97
3. CCN(CC)C(=O)Oc1ccc(/C=C/C(=O)N2CCN(Cc3ccccc3)CC2)cc1OC ... 10.6

Query :: I have this compound here, CCN(C)C(=O)Oc1ccc(/C=C/C(=O)N2CCC(Cc3ccccc3)CC2)cc1 , and I need its recorded IC50.
Result :: 5.6

Query :: Entry to check: CCN(C)C(=O)Oc1ccc(/C=C/C(=O)N(CC)Cc2ccccc2)cc1OC
Result :: 3.8

Query :: Entry to check: CCN(CC)C(=O)Oc1ccc(/C=C/C(=O)N2CCC(Cc3ccccc3)CC2)cc1OC
Result :: 5.1

Query :: Entry to check: CCN(C)C(=O)Oc1ccc(/C=C/C(=O)N2CCC(Cc3ccccc3)CC2)cc1OC
Result :: 6.5

Query :: Entry to check: CCN(Cc1ccccc1)C(=O)/C=C/c1ccc(OC(=O)N(c2ccccc2)c2ccccc2)c(OC)c1
Result :: 25.3

Query :: Entry to check: CCN(C)C(=O)Oc1ccc(/C=C/C(=O)N2CCN(Cc3ccccc3)CC2)cc1
Result :: 29.7
